Taken from the NTF2 design screens of Basanta et al. (2020).

- procedureSummary: protease stability score; higher = more stable; yeast display proteolysis, trypsin and chymotrypsin
assayMetric: protease stability score
Response field accepts a number only; no unit should be typed.

Let me know recorded protease stability score for SEEEEEVLRFLKEWIHRLRTGDEDILRELLDPDVRIEAENRESHGREEATRLLSEIRFEHFFIESIKVQGNKVSIHGRVHGVINGKKFKHHIHIILVKVNGKWQFREIDIH , thanks.
-0.107

Let me know recorded protease stability score for DHEDELMERLARLFVHALQTGDEDLLRRYADPNTLINVNGKNLHGMEEESRFWKEIRIEHTEVERIHVQGNKSTVFVRVFFRIGDKHVHEHRILRLEFVDGRLRSVELERH , thanks.
1.69

Let me know recorded protease stability score for DEDEEKKDEARRLWEENLMTGDEETLFRLADPHVRTVINGVEFHGREEMLKAIRWLRHDLGAKHIDSIHIDSVTIQGDFVIVHGHLRFSIGDKRTDSEVHLHVLKVDGKWYVHEVNIN , thanks.
-0.183

====

- procedureSummary: protease stability score; higher = more stable; yeast display proteolysis, trypsin and chymotrypsin
The reader will find reported protease stability score values listed item by item below.
Response field accepts a number only; no unit should be typed.

Use these answered entries as a reference point.
[[record]]
residuesequence = "DELFKNMHTMAEIFLKLLLTGDEDLIRHYADPNVRLEWIFNGVRFEHVGRESFMEFLHRWLEELRLHDLIVHEVRFQGDKYHMDTRERVRVDGVELDRKTEQMYVVVDGRLHSVHRIIN"
resultvalue = 0.678

[[record]]
residuesequence = "TEEEELLKKFMKDFIQKHVTGDWDSLYKMADPDVKWHINGQQSIGREEVHRMWSEKLKRIDHIEHFHDESIHVIDGRVTLRGRITGNVDGRRYDVEVDFHLFVVDGKLKQFHVHHQ"
resultvalue = 0.849

[[record]]
residuesequence = "SEMEEESHKVVEYATHVFATGDEHLMRKNFDPDVKLDYNGKHFHGWEEFVKLMQTLREKYGVKHVKRVEIEDIRIIGNKVEVDTRVVQNVDGVPFELEITLILIKIDGKWRNHSSRIR"
resultvalue = 0.037

[[record]]
residuesequence = "TEDEKMAEDLLKLILEAMETGDERIFRHLVDPNVRVSQGEKQLHGREAVEEMLKHLRLHRVRIRDVHVVGDKIIVQGEIHGEIGDFRFESHIIVYIHKFNGQWRHKSIEIK"
resultvalue = 1.42

[[record]]
residuesequence = "SEDQKFFEELVRLMYEYSLTGDWELSERLLDPNALIDIDGVEFHGREIFVESMRHIRLDHIEIRHVESINGRIHAKTEVDGTVNGQRRRRDVEIHLLKVNGRWYIRRVNFK"
resultvalue = 2.45


Next sequence, please.
Let me know recorded protease stability score for DDKQRAYEELTRKTLEVIETGDERMIEEMLDPNVRIHIDGKHVHGMEEATRIFLHEFHHLGFKHFEFKSVIEVDEKLIVTGHMRVDGREVELRIVIWKVNGRWTTESIQIHRL , thanks.
1.4

====

The reader will find reported protease stability score values listed item by item below.
- procedureSummary: protease stability score; higher = more stable; yeast display proteolysis, trypsin and chymotrypsin;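 also: relative to predicted unfolded state with 0 unfolded-like and 1 meaning tenfold more protease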
Response field accepts a number only; no unit should be typed.

Use these answered entries as a reference point.
[[record]]
residuesequence = "DHEDKLHEEAFRRWLHVFKTGNEDLIRRLVDPHVKLEVDGQDFHGREELLRFLIERIRNLGIKVSDVKVKHVDIQGDKLDIDVRFIVEFNGRRTEINEWLIMEKIDGRWVVQSIHIR"
resultvalue = 1.3

[[record]]
residuesequence = "SEEEEYARHFMTLVMSNLHTGNFEESRQNADPRTRVVIGDKRLHGWDEFAREYHEELRDRGVEIHFRVHHIEEFDGRLLTDFSIEIRYGDKVDHIRIRLYVTKINGRWFIKELEFR"
resultvalue = 1.1


Let me know recorded protease stability score for DEWHELANEIMQLLIELWLTGDEEIVLKLADPNVKVKIIVNGRTYSNHGREMFHDWHRRVDYIHEIRIKDVTFVNGVVISDTHVDGTINGVRMRTDTKMIVVVVNGKLKSAEYRVE , thanks.
1.11

Let me know recorded protease stability score for SEEEKHWRKVINLLRRWHLTGDEHNLLELFDPNYRLHQGDKEIHGMELYIEIFERELKKVPNLKINFDSKHIEVQGEKARAETELDVNIDGRRIEFETRLYSIKFNGKWFVHSMEVK , thanks.
0.553

Let me know recorded protease stability score for DEDEEASKIFWEIWLHNVRTGDEHAINELVDPHVKMVYGDKTFHGMKMLERLYRELGVKHMEVRLDDERLINGVLTLDTRLIIRVDGRTIDIKTEIIALKVNGKWVVKSITYR , thanks.
1.1

====

- procedureSummary: protease stability score; higher = more stable; yeast display proteolysis, trypsin and chymotrypsin;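 also: relative to predicted unfolded state with 0 unfolded-like and 1 meaning tenfold more protease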
assayMetric: protease stability score
Response field accepts a number only; no unit should be typed.

[[record]]
residuesequence = "SETEEEARKMIELLVEAWLTGDEHTLERMLDPHVKIIIDGRELHGWKVLAERIKHLRYEHFEFELHSVETQGDKIIIRGIVRSDLRVGDKEEHTHLEVIIIITKVNGRWVVHSIEIR"
assaymetric = "protease stability score"
resultvalue = 1.68

[[record]]
residuesequence = "SELEELMKRLVKDWLHNWITGNEDRIWELADPDALVHFDGVISHGREEVIKLIRRFTEELRIHRIQIDHIKIQGDKIHIHLTEDGTIGDKRKEINVEIILFIINGKFKSSEIRIR"
assaymetric = "protease stability score"
resultvalue = 1.49


Next sequence, please.
Let me know recorded protease stability score for SEKQKLAEHFAKEFIHSLETGNEEFLEHLADPDTRLEVGDKEIHGMHHLSRWLHEHLHRYKNVRWSIEITSIEVQGDKIIIHGTLHLNIDGVEIRELIVIEIDVVNGRVKSEHRDKL , thanks.
1.38

====

- procedureSummary: protease stability score; higher = more stable; yeast display proteolysis, trypsin and chymotrypsin;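 also: relative to predicted unfolded state with 0 unfolded-like and 1 meaning tenfold more protease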
assayMetric: protease stability score
Response field accepts a number only; no unit should be typed.

[[record]]
residuesequence = "DEWEEFVKRFLEAHVKANRTGDERLLQELIDPHVRIEFNGVELHGREIFTETISQLRIKDVNLRRYHMYDGQVEIHGELHGVFNGQEKDTKIHVREIKVDGRWKMKEYSIH"
assaymetric = "protease stability score"
resultvalue = 0.994


Let me know recorded protease stability score for SEHDNLMKEKLTLMEHTLMTGDEEVWRELLDPEALTTVDGQHFHGREEVVKFLRKVRRRVDHITSIEIESIDPQGEKLHLDGRNRIKIDGREIELNVVIIMRKINGRWFLRSWNVV , thanks.
1.22

Let me know recorded protease stability score for DELDDITEHLLHRFVDSLITGDEDLLEKYADPNAKLIIEIGDKRIERHGMHRFYELLLRFKNVKLDVKEIHVQGDKATIESTLQYGDKKHDTRLEVEFYDGRLKIIRWEIR , thanks.
2.25

Let me know recorded protease stability score for SEEEETLEELTRRLLHTWVTGDEQTLKDLADPDVRLIFNGQTYHGREQAERIIKELLDKLGVDRVHSEPRRFNIINGRIRMHVRIHYGDKEYIVHIIATKIDGRWTIKNVIFD , thanks.
1.24

====

- procedureSummary: protease stability score; higher = more stable; yeast display proteolysis, trypsin and chymotrypsin;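 also: relative to predicted unfolded state with 0 unfolded-like and 1 meaning tenfold more protease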
Rule: Condition met for protease stability score not less than 1, Condition not met for anything less.

Please review the entries below; each comes with its answer.
[[record]]
residuesequence = "DENERRYNELSRLLFEWFLTGDEKMLSNFMDPNAKAEVNGKEEHGREELIRIYHDWLRKAGVDHIQPRHLETRHFDGRVHVHINVDVLINGKILHIHIDIDMVKIDGKWIIKHIRIHER"
qualitativelabel = "Condition met"

[[record]]
residuesequence = "DDSQDIAKTMVDIITKNSLTGDEENFEHLVDPDARLTVNGVELHGREDVVRWMKHARIHDTRVRHIRVQGNKIEVDSESRVDINGKENEMKFKLIFIKVNGQWHIRDIEIR"
qualitativelabel = "Condition met"

[[record]]
residuesequence = "SEEEELNQKLLEEIIQILITGDWRALLELADPNVRSEVNGVELHGMETHARHLLEMLEKYPNIQVRIHHLEVQGEKIIIHGTIHFNGRDLRLTLVWHVVNGRWKEVRSELR"
qualitativelabel = "Condition met"

[[record]]
residuesequence = "DEEKEELEKATEEWVHFMRTGDEDSLIKNLDPNVKNIFNGKEEIGREDLSHFIKHMGAKVVRIEDIKTQGDKVIIDTRIEVGDKHFEVTLYFEKINGRWFLHSVEIR"
qualitativelabel = "Condition not met"

[[record]]
residuesequence = "SEDERDSKIAAEINRHWLETGDEEHFKKNVDPHTKVRIGDKEYHGRHFLLHILEHHVKHLWFEVRIEDLRLIGDFVHIDMVLFIRVDGRQETFRIRIIAQKIDGRWVVKHINIE"
qualitativelabel = "Condition not met"

[[record]]
residuesequence = "HELDELTERTVKLFRDSSYTGDEDTLEDLADPNYRFVIDGKILMGREWVTRSLREWRVEDFRIHSVDLQGDKAHVDITVKGKFNGRFRTTRQEMVMMKVDGVWYFHSLTIR"
qualitativelabel = "Condition not met"

[[record]]
residuesequence = "EDDERELKLMLELLLHSQHTGDFKEAERLADPNARFEFNGREFHGREQFHSFIWKLGVDHSEVKRVRLQGEFLTLHIKHNVNGKEIDMIWYNVKVNGKWLIHHLEVR"
qualitativelabel = "Condition met"

[[record]]
residuesequence = "SEDEERSKLIIDLWEHTQSTGDESLIERLLDPDARSHWDGVHVHGRKATKIMIERIDYVERVDFKEIRTYDGRVEIHGTIDGNFNGRRREMEVIIFVVKVDGKWRIRSIRFT"
qualitativelabel = "Condition met"

[[record]]
residuesequence = "DEEERDIKIAIEFWIETWLTGDEEKEEELLDPNVRLLINGKELHGRERVVKFLKRHYHRVDHSRIDIRRMHVVDGQVHVETELRVHFDGRELRFDIILHFRKFNGRWEITKIELR"
qualitativelabel = "Condition met"


API: the following record is the query input.
Record SEEEKEMEDFLREFEKNLRTGDEEQIRRLADPHVRMEVNGVEHIGRKHVSRFWYHLVRRADHIHIEVEDMHLVGEKMELIGILRLRVNGRDLTHHHRLIVDKIDGRWFLRESRIH ; criterion: protease stability score no lower than 1. Met?
Condition met
